Source listed as patent US20180273587A1.

// values below are reported pKi
biological target: T1, MCL-1 (UniProt Q07820 172-327, limits assumed); test: Ki; method not stated; unit not printed (nM per Table 6)
T1 construct: Target of the Ki columns; also called Myeloid cell leukemia 1
T1 sequence (Q07820 172-327 limits assumed): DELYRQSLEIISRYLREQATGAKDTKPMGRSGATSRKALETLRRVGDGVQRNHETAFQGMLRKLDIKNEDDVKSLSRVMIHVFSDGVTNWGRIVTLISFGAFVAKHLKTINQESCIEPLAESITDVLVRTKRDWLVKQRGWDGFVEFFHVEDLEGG
Starred links: 1 amine or outer side, 2 acyl side, 3 side chain; linkers in the order of their positions; H or OH if unused. Positions of bridges follow the written chain, without caps; N, C: chain ends. Non-standard residues stand in square brackets, D forms with d. St = two pentenyl-alanine olefin side chains, each crosslinked to another residue (stitch), C=CCCCC(CCCC=C)(N[*:1])C(=O)[*:2]; R8 = C=CCCCCCC[C@@](C)(N)C(=O)O; R5 = C=CCCC[C@@](C)(N)C(=O)O
Friendly reminder that pKi comes from taking -log10 of the concentration in mol/L.

IWIAQALRAIGDAANAYYA (N-terminal Ac; $r8 at 9 and $ at 16 (crosslinked); 2Nal at 14; C-terminal NH2) [SEQ ID NO: 1746] :: 8.36
Ac-IWIAQALR[R8]IGDEFN[St]YYA[R5]A-NH2 (staple 16-20, 9-16) [SEQ ID NO: 1784] :: 7.94

Next, consider the following binder.
Measured pKi of IWIAQALRAIGDAFNAYYX (N-terminal Ac; $r8 at 9 and $ at 16 (crosslinked); Aib at 19; C-terminal NH2) [SEQ ID NO: 1770] : 7.54
